B1: DnaJ homolog subfamily C member 5, residues 16 to 77; numbered along this chain, Q9H3Z4 (parent)
chain: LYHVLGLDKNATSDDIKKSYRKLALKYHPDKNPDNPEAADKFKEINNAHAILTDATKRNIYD

Variants of: B1
assay_summary: abundance fitness (aPCA) (normalised: wild type 0, dead -1); higher = more abundant; growth selection in yeast, the domain comes from the species named
particulars: Homo sapiens
abundance fitness vs -0.02: at or above is class 1, below is class 0.

Use the examples below as a reference point.
A39R: class 0
A24L: class 0
Y20K: class 0
H49R: class 1

Here is the next item to consider.
For this variant, is measured abundance fitness -0.02 or higher? "Y20V" class 0
